Tested on: GST-tagged Cn
Assay procedure: PEPperPRINT peptide microarray binding assay with GST-tagged Cn
Assay context: GST-tagged Cn, max over the chip locations
Source text: We then estimated in-silico the binding strength of the various peptides to Cn by template-based docking followed by flexible backbone refinement using Modeller and PepCrawler (Figs 4 and S4). […] Fig 4 Medium-throughput filtering by structural modeling and microarray screening. […] (f) Scatter plot of the sequence likelihood (normalized by length, higher is better) against fluorescence level (higher is better, see Methods for details of the data analysis). […]
Property label: Chip Fluorescence (max)
Field format: numeric only.

Here is how some sequences turned out for Chip Fluorescence (max).
GVPETPSRPVDPTAPS [SeqRBM_5086] :: -0.4316
VSLKIPGSSAIDLTAS [SeqFLNA_Trichinella_nativa] :: -0.0417
QGIYQDLGGINNFSIS [SeqCRZ1_Pseudogymnoascus_sp] :: -0.4093
SSRIQSKIVVNEPKQI [SeqRBM_7418] :: -0.3136
TFWTNPQYRIKVTDPD [SeqRBMlowT_12] :: -0.2746

Give me measured Chip Fluorescence (max), please, for this sequence: ATSEQPTFDLSSAMPT [SeqRBM_6206]
-1.8391

Give me measured Chip Fluorescence (max), please, for this sequence: SQLAAPAINIDFAPTN [SeqRBMlowT_5061]
0.08477

Give me measured Chip Fluorescence (max), please, for this sequence: HVSSSPDIALTPEQHD [SeqRBM_7666]
0.08725

The values you see were collected from paper PMC9928118.
